Target: T1, human serum albumin (human, UniProt P02768 25-609)
T1 construct: Immobilised on SPR chips; also added in solution to the cell assays; also called HSA; humanSA
Assay: SPR Biacore 3000, HSA on chip, pH 7.4
READOUT_KIND: R0 pH7.4 (RU)
Report only the number, with the unit RU understood.

Known R0 pH7.4 results, listed for orientation:
Challenge: Field request: R0 pH7.4 | item: TA-Fc-ABDEG-2H11 (2H11 parental fused at the C-terminus of Fc-ABDEG) (Fc fusion) DKTHTCPPCPAPELLGGPSVFLFPPKPKDTLYITREPEVTCVVVDVSHEDPEVKFNWYVDGVEVHNAKTKPREEQYNSTYRVVSVLTVLHQDWLNGKEYKCKVSNKALPAPIEKTISKAKGQPREPQVYTLPPSRDELTKNQVSLTCLVKGFYPSDIAVEWESNGQPENNYKTTPPVLDSDGSFFLYSKLTVDKSRWQQGNVFSCSVMHEALKFHYTQKSLSLSPGGGGGSGGGGSGGGGSGGGGSELQVVESGGGLVQAGGSLRLSCAASGRTFRSNTMGWFRQAPGKEREFVAAITWSGGTTYYADSVKGRFAISGDNAKNTVYLQMNSLKPEDTAVYYCAAEGPKWEPWNGIYHPADFGSWGQGTQVTVSS
Response given: 115

Challenge: Field request: R0 pH7.4 | item: TA-Fc-ABDEG-2H11-v16 (Fc fusion, Scaffold as for m24) DKTHTCPPCPAPELLGGPSVFLFPPKPKDTLYITREPEVTCVVVDVSHEDPEVKFNWYVDGVEVHNAKTKPREEQYNSTYRVVSVLTVLHQDWLNGKEYKCKVSNKALPAPIEKTISKAKGQPREPQVYTLPPSRDELTKNQVSLTCLVKGFYPSDIAVEWESNGQPENNYKTTPPVLDSDGSFFLYSKLTVDKSRWQQGNVFSCSVMHEALKFHYTQKSLSLSPGGGGGSGGGGSGGGGSGGGGSELQVVESGGGLVQAGGSLRLSCAASGRTFRSNTMGWFRQAPGKEREFVAAITWSGGTTYYADSVKGRFAISGDNAKNTVYLQMNSLKPEDTAVYYCAAEGPKWEPWNGIYHPADAGSWGQGTQVTVSS
Response given: 0.571

Continue with the binder presented below.
Challenge: Field request: R0 pH7.4 | item: TA-Fc-ABDEG-2H11-v3 (Fc fusion) DKTHTCPPCPAPELLGGPSVFLFPPKPKDTLYITREPEVTCVVVDVSHEDPEVKFNWYVDGVEVHNAKTKPREEQYNSTYRVVSVLTVLHQDWLNGKEYKCKVSNKALPAPIEKTISKAKGQPREPQVYTLPPSRDELTKNQVSLTCLVKGFYPSDIAVEWESNGQPENNYKTTPPVLDSDGSFFLYSKLTVDKSRWQQGNVFSCSVMHEALKFHYTQKSLSLSPGGGGGSGGGGSGGGGSGGGGSELQVVESGGGLVQAGGSLRLSCAASGRTFRSNTMGWFRQAPGKEREFVAAITWSGGTTYYADSVKGRFAISGDNAKNTVYLQMNSLKPEDTAVYYCAAEGAKWEPWNGIYHPADFGSWGQGTQVTVSS
Response given: 8.24
